system: HCV replicon in HUH-7 cells; assay: HCV replicon FRET assay; type: cell-based, Hepatitis C virus (strain 1b); settings: Hepatitis C virus, Huh-7, read-out: EC50 Range, HCV replicon cell assay; Table 1
MEASURED ENDPOINT: EC50

- C=C[C@@H]1C[C@]1(NC(=O)[C@@H]1C[C@@H](Oc2cc(-c3ccccc3)nc3cc(OC)ccc23)CN1C(=O)[C@H](O)c1ccccc1)C(=O)NS(=O)(=O)C1CC1: > 5 µM
- C=C[C@@H]1C[C@]1(NC(=O)[C@@H]1CC(Oc2cc(-c3ccccc3)nc3cc(OC)ccc23)CN1C(=O)[C@@H](O)C(C)(C)C)C(=O)NS(=O)(=O)C1(CC2CC2)CC1 (stereo partly shown): 0.5 to 5 µM
- C=C[C@@H]1C[C@]1(NC(=O)[C@@H]1C[C@@H](Oc2nc(-c3ccc(OC(F)(F)F)cc3)cc3cc(OC)ccc23)CN1C(=O)[C@@H](O)C(C)(C)COC)C(=O)NS(=O)(=O)C1CC1: 0.5 to 5 µM
- CCC1C[C@]1(NC(=O)[C@@H]1C[C@@H](Oc2cc(-c3ccccc3)nc3cc(OC)ccc23)CN1C(=O)C(O)Cc1c[nH]cn1)C(=O)NS(=O)(=O)C1CC1 (stereo partly shown): > 5 µM

----------
biological target: HCV NS3/4A protease complex (BMS strain); construct: other: HCV NS3/4A enzyme assay; said of H77 and J4L6S; fused on or other part: Three-lysine solubilising tail at the NS4A C-terminus and a His tag from pET21b (Ni-NTA purification), for the H77 and J4L6S constructs; assay: FRET peptide assay to monitor HCV NS3/4A proteolytic activity, BMS strain; details: read-out: IC50 Range; HCV NS3/4A enzyme assay; Table 1
pIC50: −log10 of the molar value.
Entries and their measured pIC50 follow.
MEASURED ENDPOINT: pIC50

- C=C[C@@H]1C[C@]1(NC(=O)[C@@H]1C[C@@H](Oc2cc(-c3ccccc3)nc3cc(OC)ccc23)CN1C(=O)[C@@H](OC(=O)Nc1ccc(N(C)C)cc1)C(C)(C)C)C(=O)NS(=O)(=O)C1CC1: 6.00 to 7.00
- C=CCCCCCC(O)C(=O)N1C[C@H](Oc2nc(-c3ccccc3)cc3cc(OC)ccc23)CC1C(=O)N[C@]1(C(=O)NS(=O)(=O)C2CC2)CC1C=C (stereo partly drawn): 6.00 to 7.00
- CCC1C[C@]1(NC(=O)[C@@H]1C[C@@H](Oc2cc(-c3ccccc3)nc3cc(OC)ccc23)CN1C(=O)[C@@H](O)C1CCCCC1)C(=O)NS(=O)(=O)C1CC1 (stereo partly drawn): > 7.00

----------
Entries and their measured IC50 follow.
biological target: HCV NS3/4A protease complex (BMS strain); construct: other: HCV NS3/4A enzyme assay; said of H77 and J4L6S; fused on or other part: Three-lysine solubilising tail at the NS4A C-terminus and a His tag from pET21b (Ni-NTA purification), for the H77 and J4L6S constructs; test: FRET peptide assay to monitor HCV NS3/4A proteolytic activity, BMS strain; conditions: read-out: IC50 Range; HCV NS3/4A enzyme assay; Table 1
MEASURED ENDPOINT: IC50

• C=C[C@@H]1C[C@]1(NC(=O)[C@@H]1C[C@@H](Oc2nccc3cc(OC)ccc23)CN1C(=O)[C@@H](OC(=O)NC1CCCC1)C(C)C)C(=O)NS(=O)(=O)C1CC1 (stereo in doubt) [Example 53Compound 53] = > 1000 nM
• C=C[C@@H]1C[C@]1(NC(=O)[C@@H]1C[C@@H](Oc2nccc3ccccc23)CN1C(=O)[C@@H](O)C(C)(C)C)C(=O)NS(=O)(=O)C1CC1 = 100 to 1000 nM
• C=C[C@@H]1C[C@]1(NC(=O)[C@@H]1C[C@@H](Oc2ncnc3ccccc23)CN1C(=O)[C@@H](OC(=O)NC(C)(C)C)C(C)(C)C)C(=O)NS(=O)(=O)C1CC1 = 100 to 1000 nM
• C=C[C@@H]1C[C@]1(NC(=O)[C@@H]1C[C@@H](Oc2nccc3ccccc23)CN1C(=O)[C@@H](OC(=O)NC1CCCCC1)C(C)(C)C)C(=O)NS(=O)(=O)C1CC1 = < 100 nM
• CCC1C[C@]1(NC(=O)[C@@H]1C[C@@H](Oc2cc(-c3ccccc3)nc3cc(OC)ccc23)CN1C(=O)[C@@H](O)CC(C)C)C(=O)NS(=O)(=O)C1CC1 (some centres unmarked) = 100 to 1000 nM
• C=C[C@@H]1C[C@]1(NC(=O)[C@@H]1C[C@@H](Oc2nccc3ccccc23)CN1C(=O)[C@@H](OC(=O)Nc1ccc(C(C)(C)C)cc1)C(C)(C)C)C(=O)NS(=O)(=O)C1CC1 = 100 to 1000 nM
• C=C[C@@H]1C[C@]1(NC(=O)[C@@H]1C[C@@H](Oc2cc(-c3ccccc3)nc3cc(OC)ccc23)CN1C(=O)[C@@H](OC(=O)Nc1ccc(OC)cc1C)C(C)(C)C)C(=O)NS(=O)(=O)C1CC1 = 100 to 1000 nM
• C=C[C@@H]1C[C@]1(NC(=O)[C@@H]1C[C@@H](Oc2nccc3cc(OC)ccc23)CN1C(=O)[C@@H](OC(=O)NC(C)(C)C)C(C)(C)C)C(=O)NS(=O)(=O)c1ccccc1 = 100 to 1000 nM
